Study System: Sodium channel protein type 5 subunit alpha (Homo sapiens, UniProt Q14524)
Sequence (Q14524 whole entry): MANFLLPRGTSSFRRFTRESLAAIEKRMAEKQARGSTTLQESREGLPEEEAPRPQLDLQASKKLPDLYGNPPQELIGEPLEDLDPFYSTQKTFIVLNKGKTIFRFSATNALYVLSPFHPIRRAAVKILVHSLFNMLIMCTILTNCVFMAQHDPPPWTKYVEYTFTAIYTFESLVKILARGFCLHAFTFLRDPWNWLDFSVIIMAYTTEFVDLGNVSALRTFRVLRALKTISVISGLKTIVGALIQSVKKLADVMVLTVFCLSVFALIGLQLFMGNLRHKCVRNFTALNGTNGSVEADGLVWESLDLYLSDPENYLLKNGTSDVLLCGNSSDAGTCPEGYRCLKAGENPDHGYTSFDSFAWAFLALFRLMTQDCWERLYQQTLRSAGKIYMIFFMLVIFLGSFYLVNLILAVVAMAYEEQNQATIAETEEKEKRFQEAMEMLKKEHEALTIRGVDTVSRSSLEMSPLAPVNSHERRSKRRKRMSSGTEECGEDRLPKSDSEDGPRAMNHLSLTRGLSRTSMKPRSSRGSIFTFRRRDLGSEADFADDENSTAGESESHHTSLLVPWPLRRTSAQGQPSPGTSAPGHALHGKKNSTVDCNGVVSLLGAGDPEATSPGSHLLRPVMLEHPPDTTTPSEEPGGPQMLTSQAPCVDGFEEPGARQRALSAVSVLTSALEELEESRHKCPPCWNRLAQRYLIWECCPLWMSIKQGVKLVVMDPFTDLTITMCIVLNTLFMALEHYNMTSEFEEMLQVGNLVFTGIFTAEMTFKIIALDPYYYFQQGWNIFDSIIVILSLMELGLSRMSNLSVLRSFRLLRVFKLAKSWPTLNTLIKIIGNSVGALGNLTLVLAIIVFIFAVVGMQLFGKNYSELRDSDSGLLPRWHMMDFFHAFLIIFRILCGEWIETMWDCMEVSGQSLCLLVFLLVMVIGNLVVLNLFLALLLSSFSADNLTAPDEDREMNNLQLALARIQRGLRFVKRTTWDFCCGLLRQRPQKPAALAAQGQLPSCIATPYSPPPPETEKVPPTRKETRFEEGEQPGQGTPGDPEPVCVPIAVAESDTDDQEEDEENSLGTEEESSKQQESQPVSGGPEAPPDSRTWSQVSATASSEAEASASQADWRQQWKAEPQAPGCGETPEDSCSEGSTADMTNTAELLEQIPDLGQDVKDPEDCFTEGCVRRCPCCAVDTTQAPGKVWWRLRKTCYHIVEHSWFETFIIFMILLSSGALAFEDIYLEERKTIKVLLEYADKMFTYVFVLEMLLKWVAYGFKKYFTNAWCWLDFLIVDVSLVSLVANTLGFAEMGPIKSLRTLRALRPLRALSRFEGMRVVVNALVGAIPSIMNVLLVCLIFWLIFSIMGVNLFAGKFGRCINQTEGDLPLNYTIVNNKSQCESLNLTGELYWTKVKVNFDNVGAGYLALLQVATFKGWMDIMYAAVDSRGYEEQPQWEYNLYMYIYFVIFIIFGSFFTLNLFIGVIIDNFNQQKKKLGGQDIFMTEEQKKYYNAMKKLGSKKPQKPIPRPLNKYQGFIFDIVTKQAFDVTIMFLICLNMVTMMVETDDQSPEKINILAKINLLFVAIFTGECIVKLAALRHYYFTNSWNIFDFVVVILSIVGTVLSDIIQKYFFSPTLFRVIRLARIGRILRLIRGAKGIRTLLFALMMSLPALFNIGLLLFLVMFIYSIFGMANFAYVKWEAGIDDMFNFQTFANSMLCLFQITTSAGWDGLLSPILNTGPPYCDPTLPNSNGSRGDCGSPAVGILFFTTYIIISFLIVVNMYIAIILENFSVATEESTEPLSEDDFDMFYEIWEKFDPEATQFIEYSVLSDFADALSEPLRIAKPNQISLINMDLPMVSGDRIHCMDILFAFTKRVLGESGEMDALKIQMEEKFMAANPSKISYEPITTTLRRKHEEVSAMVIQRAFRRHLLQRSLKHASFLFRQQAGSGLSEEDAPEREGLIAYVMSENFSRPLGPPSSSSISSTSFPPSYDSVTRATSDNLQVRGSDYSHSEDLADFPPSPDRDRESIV
Assay Overview: Blockade of human full-length NaV1.5 expressed in HEK293 cells co-transfected with pCD8-IRES-hbeta1 assessed as 0.1 Hz of half-maximal tonic-induced channel current at -120 mV holding potential after 36 to 72 hrs by patch clamp assay
Format: cell-based
pIC50: −log10 of the molar value.

Compound | pIC50
Cc1ccc(O)c(C)c1OCC(C)N (racemic) | 3.76

###

Study System: Sodium channel protein type 5 subunit alpha (Homo sapiens, UniProt Q14524)
Assay Overview: Blockade of human full-length NaV1.5 expressed in HEK293 cells co-transfected with pCD8-IRES-hbeta1 assessed as 10 Hz of use-dependent-induced channel current at -120 mV holding potential after 36 to 72 hrs by patch clamp assay
Assay type: cell-based
pIC50: −log10 of the molar value.

Compound | pIC50
Cc1ccc(O)c(C)c1OCC(C)N (racemic) | 4.52
